system: 323965-272-R-J2-PDC complex spheroid growth, % test/control; experiment: Anticancer human tumor 323965-272-R-J2-PDC patient-derived pancreatic carcinoma cell line growth inhibition [Asc]; conditions: second compound 0.01 µM; first compound 1 µM; stronger effect = lower value

{"molecule": "C=CC(=O)N1CCN(c2nc(=O)n(-c3c(C)ccnc3C(C)C)c3nc(-c4c(O)cccc4F)c(F)cc23)C(C)C1 (centres undefined) + CNC(C)C(=O)NC1CN(S(=O)(=O)c2cccc(S(=O)(=O)N3CCC4CCC(C(=O)NC(c5ccccc5)c5ccccc5)N4C(=O)C(NC(=O)C(C)NC)C3)c2)CCC2CCC(C(=O)NC(c3ccccc3)c3ccccc3)N2C1=O", "value.unit": "%", "viability, T/C": 69.8}
{"molecule": "O=C(c1cc(Cc2n[nH]c(=O)c3ccccc23)ccc1F)N1CCN(C(=O)C2CC2)CC1 + CNC(C)C(=O)NC1CN(S(=O)(=O)c2cccc(S(=O)(=O)N3CCC4CCC(C(=O)NC(c5ccccc5)c5ccccc5)N4C(=O)C(NC(=O)C(C)NC)C3)c2)CCC2CCC(C(=O)NC(c3ccccc3)c3ccccc3)N2C1=O", "value.unit": "%", "viability, T/C": 94.5}
{"molecule": "CCN1CCN(Cc2ccc(Nc3ncc(F)c(-c4cc(F)c5nc(C)n(C(C)C)c5c4)n3)nc2)CC1 + CNC(C)C(=O)NC1CN(S(=O)(=O)c2cccc(S(=O)(=O)N3CCC4CCC(C(=O)NC(c5ccccc5)c5ccccc5)N4C(=O)C(NC(=O)C(C)NC)C3)c2)CCC2CCC(C(=O)NC(c3ccccc3)c3ccccc3)N2C1=O", "value.unit": "%", "viability, T/C": 79}
{"molecule": "C#Cc1c(F)ccc2cc(O)cc(-c3ncc4c(N5CC6CCC(C5)N6)nc(OCC56CCCN5CC(F)C6)nc4c3F)c12 (centres undefined) + CNC(C)C(=O)NC1CN(S(=O)(=O)c2cccc(S(=O)(=O)N3CCC4CCC(C(=O)NC(c5ccccc5)c5ccccc5)N4C(=O)C(NC(=O)C(C)NC)C3)c2)CCC2CCC(C(=O)NC(c3ccccc3)c3ccccc3)N2C1=O", "value.unit": "%", "viability, T/C": 87.4}

---

tested on: 323965-272-R-J2-PDC complex spheroid growth, % test/control; assay: Anticancer human tumor 323965-272-R-J2-PDC cell line growth inhibition [Asc]; details: second compound 0.316 µM; first compound 0.03 µM; stronger effect = lower value;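 further: compound exposure lasted 7 days starting three days after spheroid seeding; 100% = DMSO vehicle control wells with viability set relative to vehicle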
Reported viability, T/C values follow for various compounds

{"compound": "NC(=O)C(=Cn1cnc(-c2cc(C(F)(F)F)cc(C(F)(F)F)c2)n1)c1cncnc1 + CNC(C)C(=O)NC1CN(S(=O)(=O)c2cccc(S(=O)(=O)N3CCC4CCC(C(=O)NC(c5ccccc5)c5ccccc5)N4C(=O)C(NC(=O)C(C)NC)C3)c2)CCC2CCC(C(=O)NC(c3ccccc3)c3ccccc3)N2C1=O", "study.target": "323965-272-R-J2-PDC complex spheroid growth, % test/control", "value.unit": "%", "viability, T/C": 93.6}
{"compound": "CCN1C(C(=O)NC23CCC(C(=O)O)(CC2)CC3)C(c2cccc(Cl)c2F)C2(C(=O)Nc3cc(Cl)ccc32)C12CCCCC2 (stereo not drawn) + Cc1c(S(C)(=O)=O)c(-c2cc(F)cc(N3CCN(c4ccc(NS(=O)(=O)c5ccc(NC(CCN6CCC(C(=O)OCCCP(=O)(O)O)CC6)CSc6ccccc6)c(S(=O)(=O)C(F)(F)F)c5)cc4)CC3)c2)c(-c2ccc(Cl)cc2)n1C(C)C", "study.target": "323965-272-R-J2-PDC complex spheroid growth, % test/control", "value.unit": "%", "viability, T/C": 97.9}
{"compound": "Cc1nc(N2CCC3(CC2)COC(C)C3N)c(CO)nc1Sc1ccnc(N)c1Cl (stereo not drawn) + CNC(C)C(=O)NC1CN(S(=O)(=O)c2cccc(S(=O)(=O)N3CCC4CCC(C(=O)NC(c5ccccc5)c5ccccc5)N4C(=O)C(NC(=O)C(C)NC)C3)c2)CCC2CCC(C(=O)NC(c3ccccc3)c3ccccc3)N2C1=O", "study.target": "323965-272-R-J2-PDC complex spheroid growth, % test/control", "value.unit": "%", "viability, T/C": 85}

---

Reported viability, T/C values follow for various molecules
tested on: 323965-272-R-J2-PDC complex spheroid growth, % test/control; assay: Anticancer human tumor 323965-272-R-J2-PDC cell line growth inhibition [Asc]; conditions: second compound 0.1 µM; first compound 0.3 µM; stronger effect = lower value;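 further: compound exposure lasted 7 days starting three days after spheroid seeding; 100% = DMSO vehicle control wells with viability set relative to vehicle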

{"molecule": "NC(=O)C(=Cn1cnc(-c2cc(C(F)(F)F)cc(C(F)(F)F)c2)n1)c1cncnc1 + Cc1c(S(C)(=O)=O)c(-c2cc(F)cc(N3CCN(c4ccc(NS(=O)(=O)c5ccc(NC(CCN6CCC(C(=O)OCCCP(=O)(O)O)CC6)CSc6ccccc6)c(S(=O)(=O)C(F)(F)F)c5)cc4)CC3)c2)c(-c2ccc(Cl)cc2)n1C(C)C", "viability, T/C (%)": 53.8}
{"molecule": "Cc1nc(N2CCC3(CC2)COC(C)C3N)c(CO)nc1Sc1ccnc(N)c1Cl (centres undefined) + CNC(C)C(=O)NC1CN(S(=O)(=O)c2cccc(S(=O)(=O)N3CCC4CCC(C(=O)NC(c5ccccc5)c5ccccc5)N4C(=O)C(NC(=O)C(C)NC)C3)c2)CCC2CCC(C(=O)NC(c3ccccc3)c3ccccc3)N2C1=O", "viability, T/C (%)": 65.6}
{"molecule": "CCN1C(C(=O)NC23CCC(C(=O)O)(CC2)CC3)C(c2cccc(Cl)c2F)C2(C(=O)Nc3cc(Cl)ccc32)C12CCCCC2 (centres undefined) + Cc1c(S(C)(=O)=O)c(-c2cc(F)cc(N3CCN(c4ccc(NS(=O)(=O)c5ccc(NC(CCN6CCC(C(=O)OCCCP(=O)(O)O)CC6)CSc6ccccc6)c(S(=O)(=O)C(F)(F)F)c5)cc4)CC3)c2)c(-c2ccc(Cl)cc2)n1C(C)C", "viability, T/C (%)": 101}
{"molecule": "NC(=O)C(=Cn1cnc(-c2cc(C(F)(F)F)cc(C(F)(F)F)c2)n1)c1cncnc1 + CNC(C)C(=O)NC1CN(S(=O)(=O)c2cccc(S(=O)(=O)N3CCC4CCC(C(=O)NC(c5ccccc5)c5ccccc5)N4C(=O)C(NC(=O)C(C)NC)C3)c2)CCC2CCC(C(=O)NC(c3ccccc3)c3ccccc3)N2C1=O", "viability, T/C (%)": 62.5}

---

tested on: 323965-272-R-J2-PDC complex spheroid growth, % test/control; test: Anticancer human tumor 323965-272-R-J2-PDC cell line growth inhibition [Asc]; details: second compound 0.1 µM; first compound 0.1 µM; stronger effect = lower value;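 further: compound exposure lasted 7 days starting three days after spheroid seeding; 100% = DMSO vehicle control wells with viability set relative to vehicle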
property: viability, T/C (%)

{"compound": "CCN1CCN(Cc2ccc(Nc3ncc(F)c(-c4cc(F)c5nc(C)n(C(C)C)c5c4)n3)nc2)CC1 + CNC(C)C(=O)NC1CN(S(=O)(=O)c2cccc(S(=O)(=O)N3CCC4CCC(C(=O)NC(c5ccccc5)c5ccccc5)N4C(=O)C(NC(=O)C(C)NC)C3)c2)CCC2CCC(C(=O)NC(c3ccccc3)c3ccccc3)N2C1=O", "assay.result": 76.5}
{"compound": "NC1CCC(NC2CC2c2ccccc2)CC1 (stereo not drawn) + CNC(C)C(=O)NC1CN(S(=O)(=O)c2cccc(S(=O)(=O)N3CCC4CCC(C(=O)NC(c5ccccc5)c5ccccc5)N4C(=O)C(NC(=O)C(C)NC)C3)c2)CCC2CCC(C(=O)NC(c3ccccc3)c3ccccc3)N2C1=O", "assay.result": 96.7}
{"compound": "C=CC(=O)N1CCN(c2nc(=O)n(-c3c(C)ccnc3C(C)C)c3nc(-c4c(O)cccc4F)c(F)cc23)C(C)C1 (stereo not drawn) + Cc1c(S(C)(=O)=O)c(-c2cc(F)cc(N3CCN(c4ccc(NS(=O)(=O)c5ccc(NC(CCN6CCC(C(=O)OCCCP(=O)(O)O)CC6)CSc6ccccc6)c(S(=O)(=O)C(F)(F)F)c5)cc4)CC3)c2)c(-c2ccc(Cl)cc2)n1C(C)C", "assay.result": 64.4}

---

system: 323965-272-R-J2-PDC complex spheroid growth, % test/control; assay: Anticancer human tumor 323965-272-R-J2-PDC cell line growth inhibition [Asc]; conditions: second compound 0.3 µM; first compound 0.00316 µM; stronger effect = lower value;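 further: compound exposure lasted 7 days starting three days after spheroid seeding; 100% = DMSO vehicle control wells with viability set relative to vehicle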
property: viability, T/C

{"compound": "CCN1CCN(Cc2ccc(Nc3ncc(F)c(-c4cc(F)c5nc(C)n(C(C)C)c5c4)n3)nc2)CC1 + CCN1C(C(=O)NC23CCC(C(=O)O)(CC2)CC3)C(c2cccc(Cl)c2F)C2(C(=O)Nc3cc(Cl)ccc32)C12CCCCC2", "study.target": "323965-272-R-J2-PDC complex spheroid growth, % test/control", "assay.result": "111%"}
{"compound": "COc1c(OCCCN2CCOCC2)ccc2c3n(c(=NC(=O)c4cnc(N)nc4)nc12)CCN3 + CCN1C(C(=O)NC23CCC(C(=O)O)(CC2)CC3)C(c2cccc(Cl)c2F)C2(C(=O)Nc3cc(Cl)ccc32)C12CCCCC2", "study.target": "323965-272-R-J2-PDC complex spheroid growth, % test/control", "assay.result": "101%"}
{"compound": "Cn1ncnc1[C@H]1c2n[nH]c(=O)c3cc(F)cc(c23)N[C@@H]1c1ccc(F)cc1 + CCN1C(C(=O)NC23CCC(C(=O)O)(CC2)CC3)C(c2cccc(Cl)c2F)C2(C(=O)Nc3cc(Cl)ccc32)C12CCCCC2", "study.target": "323965-272-R-J2-PDC complex spheroid growth, % test/control", "assay.result": "125%"}
{"compound": "O=C(c1ccc(F)c(F)c1Nc1ccc(I)cc1F)N1CC(O)([C@@H]2CCCCN2)C1 + CCN1C(C(=O)NC23CCC(C(=O)O)(CC2)CC3)C(c2cccc(Cl)c2F)C2(C(=O)Nc3cc(Cl)ccc32)C12CCCCC2", "study.target": "323965-272-R-J2-PDC complex spheroid growth, % test/control", "assay.result": "93.7%"}

Cited source for all entries: PubChem BioAssay AID1963425
